activity change, negative = inhibition values by entry
# TARGET_OF_ASSAY: Cytochrome P450 2D6 (Homo sapiens)
# ASSAY_PROTOCOL: qHTS Assay for Inhibitors and Substrates of Cytochrome P450 2D6 (AID 891);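 note: luciferin methyl ether substrate demethylated by CYP2D6 with NADPH regeneration; % is set by controls: 0 for no effect and ±100 for the full control effect; nearly all actives have a fitted effect of over 60% in size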
# COND: recombinant CYP2D6, luciferin-ME EGE luminescence; series mostly up to 57.1 µM
Results filed as inconclusive are left out. Calls of active or inactive are those of the source. Calls come from the whole dose curve; as a rule, active = well fitted inhibition curve with a large enough effect; inconclusive = small, poorly fitted or top-dose-only effect; inactive = no such curve, though single readings can be large or run the other way.

COMPOUND	activity change, negative = inhibition
COC(=O)C1C(c2ccccc2)C2C(=O)c3c(OC)cc(OC)cc3O[C@@]12c1ccc(OC)cc1 (stereo partly specified)	-16.4% [at 11.4 µM] (inactive)

Record CC(C)CCC[C@@H](C)[C@@H]1CC[C@@H]2[C@H]3CC[C@H]4C[C@@H](N)CC[C@@]4(C)[C@@H]3CC[C@]21C : what is its activity change, negative = inhibition with Cytochrome P450 2D6 (Homo sapiens)?
11% [at 11.4 µM] (inactive)

Entry COC(=O)[C@H]1[C@@H](c2ccccc2)[C@@]2(c3ccccc3)Oc3ccccc3[C@@]1(O)[C@@H]2O , system Cytochrome P450 2D6 (Homo sapiens): what activity change, negative = inhibition was measured?
40.2% [at 11.4 µM] (inactive)

Notebook: pull reported activity change, negative = inhibition for Cytochrome P450 2D6 (Homo sapiens), entry CCC1CN2CCC1CC2C(Oc1cc2ccccc2c2ccccc12)c1ccnc2ccc(O)cc12 (stereo unspecified)
-1.58% [at 11.4 µM] (inactive)

Look up activity change, negative = inhibition with Cytochrome P450 2D6 (Homo sapiens) for this compound: c1ccc(-c2cc3c(nc2-c2ccccc2)CCNC3)cc1
5.57% [at 11.4 µM] (inactive)

State its activity change, negative = inhibition on Cytochrome P450 2D6 (Homo sapiens): CC1Cc2c(cnc3c2CN(C)CC3)CO1 (stereo unspecified)
10.1% [at 11.4 µM] (inactive)

* * *

# Tested on: 3D7
# ASSAY_PROTOCOL: qHTS profiling for inhibitors of Plasmodium falciparum proliferation (AID 504749); note: nearly all actives have a fitted effect of over 60% in size
# COND: P. falciparum in erythrocytes, SYBR Green DNA, 72 h; series mostly up to 28.7 µM
Records with an inconclusive call do not appear. Calls of active or inactive are those of the source. Calls come from the whole dose curve; as a rule, active = well fitted inhibition curve with a large enough effect; inconclusive = small, poorly fitted or top-dose-only effect; inactive = flat fitted curve, though single readings scatter.
Please reply with one of these outcomes: Yes = active, No = inactive

Field: example entries. Status: answers known.
MOLECULE	TARGET_OF_ASSAY	CAT
CN(C)[C@H]1C(=O)C(C(N)=O)=C(O)[C@]2(O)C(=O)C3=C(O)c4c(O)cccc4[C@@](C)(O)[C@H]3C[C@@H]12	3D7	No
CN1C2CCC1C(C(=O)O)C(OC(=O)c1ccccc1)C2 (stereo not given)	3D7	No
CC1(C)[C@@H](C=C(Cl)Cl)[C@@H]1C(=O)OCc1c(F)c(F)cc(F)c1F	3D7	No

# outcome recorded in this test, key = OC[C@@H](O)[C@H]1O[C@@H]2OC(C(Cl)(Cl)Cl)O[C@H]2[C@H]1O (stereo not given in full)
No

GET /call?item= O=C1CC2OCC=C3CN4CC[C@]56c7ccccc7N1C5C2[C@H]3C[C@H]46 (stereo not given in full) returns the recorded outcome of this test.
No

Hey, what did the test say about CC(=O)[C@H]1CC[C@H]2C3CC[C@H]4C[C@H](O)CC[C@]4(C)C3CC[C@]12C (stereo not given in full) ?
No

Which outcome did this test record for the molecule CCOC(=O)c1cncn1[C@@H](C)c1ccccc1 ?
No

Assay result, entry C[C@@H]1CC[C@H]2[C@@H](C)C(=O)O[C@@H]3OC4(C)CC[C@@H]1C32OO4 (stereo not given in full) — outcome?
Yes

Dear all, I need the recorded test outcome for Cc1cc(C)cc(C(=O)OC2CC3CCC(C2)N3C)c1 (stereo not given) , thank you.
No

Would you mind telling me which call this test gave C=CC[N+]1(C)CCC23c4c5ccc(O)c4O[C@H]2C(=O)CC[C@@]3(O)C1C5 (stereo not given in full) ?
No

Value source: PubChem BioAssay (NCATS)
